Source of measurements: patent US11999727B2

system-under-test: PRMT5 (Homo sapiens, UniProt O14744)
Construct: purchased Viva (custom protein)
Sequence (O14744 whole entry): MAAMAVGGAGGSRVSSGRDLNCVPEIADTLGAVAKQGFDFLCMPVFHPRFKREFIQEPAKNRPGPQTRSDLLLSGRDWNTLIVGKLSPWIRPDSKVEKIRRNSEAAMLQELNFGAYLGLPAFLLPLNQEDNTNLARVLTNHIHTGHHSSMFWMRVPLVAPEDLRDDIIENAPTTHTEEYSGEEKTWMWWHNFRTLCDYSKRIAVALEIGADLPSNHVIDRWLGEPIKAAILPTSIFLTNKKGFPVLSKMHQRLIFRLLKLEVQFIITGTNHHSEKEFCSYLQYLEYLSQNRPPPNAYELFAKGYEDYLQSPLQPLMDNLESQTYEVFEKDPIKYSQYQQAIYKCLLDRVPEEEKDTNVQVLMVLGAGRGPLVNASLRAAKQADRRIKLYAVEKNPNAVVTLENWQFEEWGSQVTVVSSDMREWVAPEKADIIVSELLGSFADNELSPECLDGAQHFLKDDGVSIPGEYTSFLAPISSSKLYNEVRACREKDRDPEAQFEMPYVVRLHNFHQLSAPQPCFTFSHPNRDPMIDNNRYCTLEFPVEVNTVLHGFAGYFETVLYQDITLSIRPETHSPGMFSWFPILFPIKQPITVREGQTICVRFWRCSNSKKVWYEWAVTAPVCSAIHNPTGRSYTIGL
Sequence (Q9BQA1 whole entry partner): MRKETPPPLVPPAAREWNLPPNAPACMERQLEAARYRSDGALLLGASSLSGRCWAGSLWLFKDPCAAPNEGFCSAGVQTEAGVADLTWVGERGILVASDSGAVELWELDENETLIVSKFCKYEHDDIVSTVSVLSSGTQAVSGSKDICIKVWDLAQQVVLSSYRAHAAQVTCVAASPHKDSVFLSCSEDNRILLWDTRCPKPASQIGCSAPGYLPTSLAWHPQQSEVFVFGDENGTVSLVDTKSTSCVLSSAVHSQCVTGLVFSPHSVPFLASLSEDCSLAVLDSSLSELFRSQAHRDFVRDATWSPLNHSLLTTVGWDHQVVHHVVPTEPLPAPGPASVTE
protocol: PRMT5 biochemical IC50 assay with MTA as cofactor
experimental-context: PRMT5, MTA as cofactor; read-out: MTA IC50
Each entry below carries its reported IC50.

Illustrative cases are given below, each with its answer.
Lab book: IC50 of Cc1cc(NC(=O)C(=O)N2CCCC[C@@H]2c2ccc3[nH]ncc3c2)cnc1N (single isomer, unassigned) noted as > 500 nM

Lab book: IC50 of C[C@@H]1CC[C@@H](c2ccc(NS(C)(=O)=O)nc2)N(C(=O)C(=O)Nc2cncc(C(N)=O)c2)C1 (single isomer, unassigned) noted as < 50 nM

Lab book: IC50 of CCc1cc(NC(=O)C(=O)N2C[C@@H](C)CC[C@@H]2c2ccc3sc(CC(C)N(C)C)nc3c2)cnc1N (mixture of isomers) noted as < 50 nM

Lab book: IC50 of `CCc1cc(NC(=O)C(=O)N2C[C@@H](C)CC[C@@H]2c2ccc(N3CCN(C)CC3)c(C)c2)cnc1N` noted as < 50 nM

Lab book: IC50 of `CCc1cc(NC(=O)C(=O)N2C[C@@H](C)CC[C@@H]2c2ccc3cc(C)c(C4CCN(C)CC4)nc3c2)cnc1N` noted as < 50 nM

// moving on: another record for IC50
Lab book: IC50 of CCc1cc(NC(=O)C(=O)N2C[C@H](C)CC[C@H]2c2cccc3[nH]ncc23)cnc1N (racemic) noted as > 500 nM

---

Each entry below carries its reported IC50.
system-under-test: PRMT5 (Homo sapiens)
Construct: purchased Viva (custom protein)
protocol: PRMT5 biochemical IC50 assay with SAM as cofactor
experimental-context: PRMT5, SAM as cofactor; read-out: SAM IC50

Lab book: IC50 of Cc1cc(NC(=O)C(=O)N2C[C@@H](C)CC[C@H]2C23CC(O)(C2)C3)cnc1N (racemic) noted as > 0.5 µM

Lab book: IC50 of C[C@@H]1CC[C@@H](c2ccc3[nH]c(=O)ccc3c2)N(C(=O)C(=O)Nc2cncc(C(N)=O)c2)C1 (single isomer, unassigned) [Compound 804] noted as > 0.5 µM

// moving on: another record for IC50
Lab book: IC50 of C[C@@H]1CC[C@@H](c2cc3cn[nH]c3cc2F)N(C(=O)C(=O)Nc2cncc(C(N)=O)c2)C1 (single isomer, unassigned) noted as > 0.5 µM

---

system-under-test: PRMT5 (Homo sapiens)
Construct: purchased Viva (custom protein)
protocol: PRMT5 biochemical IC50 assay with no cofactor
experimental-context: PRMT5, no cofactor; read-out: No Cofactor/rel IC50
measure: IC50

Summary: Cc1cc(NC(=O)C(=O)N2C[C@@H](C)CC[C@@H]2c2ccc3sc(-c4cn(C)cn4)nc3c2)cnc1N [Compound 1214] , PRMT5 (Homo sapiens), IC50 = < 50 nM

***
Summary: CCc1cc(NC(=O)C(=O)N2C[C@@H](C)CC[C@@H]2c2ccc3sc(-c4nccn4C)nc3c2)cnc1N [Compound 1192] , PRMT5 (Homo sapiens), IC50 = < 50 nM

Summary: Cc1cc(NC(=O)C(=O)N2C[C@H](C)CC[C@H]2c2ccn(-c3cc[nH]n3)n2)cnc1N (single isomer, unassigned) [Compound 782] , PRMT5 (Homo sapiens), IC50 = < 50 nM

Summary: C[C@H]1CN(C(=O)C(=O)Nc2cncc(C(N)=O)c2)[C@H](c2ccc(F)c(F)c2)CC1(F)F (single isomer, unassigned) [Compound 683] , PRMT5 (Homo sapiens), IC50 = 50 to 500 nM

Summary: C[C@H]1CC[C@H](c2ccc(-c3cc[nH]n3)cc2)N(C(=O)C(=O)Nc2cncc(C(N)=O)c2)C1 (single isomer, unassigned) [Compound 626] , PRMT5 (Homo sapiens), IC50 = 50 to 500 nM

Summary: C[C@@H]1CC[C@@H](c2cccc(OC(F)(F)F)c2)N(C(=O)C(=O)Nc2cncc(C(N)=O)c2)C1 (racemic) [Compound 279] , PRMT5 (Homo sapiens), IC50 = 50 to 500 nM
